# assay_system: human AR (Homo sapiens)
# Sequence (P10275 whole entry): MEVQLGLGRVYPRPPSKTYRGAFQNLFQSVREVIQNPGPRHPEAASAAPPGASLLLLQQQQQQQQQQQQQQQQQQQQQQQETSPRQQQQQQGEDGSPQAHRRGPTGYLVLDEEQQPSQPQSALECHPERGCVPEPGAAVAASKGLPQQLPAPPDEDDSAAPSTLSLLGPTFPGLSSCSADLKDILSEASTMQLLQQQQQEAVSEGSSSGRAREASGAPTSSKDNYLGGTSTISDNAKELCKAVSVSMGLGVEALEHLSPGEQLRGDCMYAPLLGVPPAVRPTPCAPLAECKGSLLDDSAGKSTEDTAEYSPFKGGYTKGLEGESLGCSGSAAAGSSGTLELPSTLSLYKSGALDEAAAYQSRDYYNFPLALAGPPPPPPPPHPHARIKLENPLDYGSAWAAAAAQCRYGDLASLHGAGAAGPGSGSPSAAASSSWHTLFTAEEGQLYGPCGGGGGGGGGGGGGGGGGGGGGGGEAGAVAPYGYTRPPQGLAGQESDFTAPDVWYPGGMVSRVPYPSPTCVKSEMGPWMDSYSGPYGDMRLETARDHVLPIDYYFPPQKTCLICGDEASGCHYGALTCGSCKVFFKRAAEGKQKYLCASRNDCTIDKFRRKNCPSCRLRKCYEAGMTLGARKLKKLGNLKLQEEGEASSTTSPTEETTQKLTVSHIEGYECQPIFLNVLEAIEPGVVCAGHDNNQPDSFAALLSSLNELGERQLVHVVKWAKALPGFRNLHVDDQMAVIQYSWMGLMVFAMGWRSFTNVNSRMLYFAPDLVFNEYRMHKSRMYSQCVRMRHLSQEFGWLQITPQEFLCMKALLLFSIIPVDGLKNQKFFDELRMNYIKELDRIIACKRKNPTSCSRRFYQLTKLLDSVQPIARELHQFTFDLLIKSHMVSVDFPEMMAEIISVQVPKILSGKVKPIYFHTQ
# experiment_description: Co-transfection assay, AR agonist activity (CV-1 cells, MTV-LUC reporter)
# Format: cell-based
Reported AR Agonist CV-1 Cells Efficacy (%) values are given for each entry in this list.

>  <smiles_notation>
CCCNc1ccc2[nH]c(=O)cc(C(F)(F)F)c2c1

>  <AR Agonist CV-1 Cells Efficacy (%)>
34

$$$$
>  <smiles_notation>
O=c1cc(C(F)(F)F)c2ccc(NCC(F)(F)F)cc2[nH]1

>  <AR Agonist CV-1 Cells Efficacy (%)>
29

$$$$
>  <smiles_notation>
CCCCN(CCCC)c1ccc2[nH]c(=O)cc(C(F)(F)F)c2c1

>  <AR Agonist CV-1 Cells Efficacy (%)>
68

$$$$
>  <smiles_notation>
CCN(c1ccc2[nH]c(=O)cc(C(F)(F)F)c2c1)C(C)C

>  <AR Agonist CV-1 Cells Efficacy (%)>
83

$$$$
>  <smiles_notation>
Cc1cc(=O)[nH]c2ccc(N(CC(F)(F)F)CC(F)(F)F)cc12

>  <AR Agonist CV-1 Cells Efficacy (%)>
89

$$$$
